Target: Bromodomain-containing protein 3 (Homo sapiens, UniProt Q15059, Y348A)
Sequence (Q15059 2-726 Y348A limits assumed): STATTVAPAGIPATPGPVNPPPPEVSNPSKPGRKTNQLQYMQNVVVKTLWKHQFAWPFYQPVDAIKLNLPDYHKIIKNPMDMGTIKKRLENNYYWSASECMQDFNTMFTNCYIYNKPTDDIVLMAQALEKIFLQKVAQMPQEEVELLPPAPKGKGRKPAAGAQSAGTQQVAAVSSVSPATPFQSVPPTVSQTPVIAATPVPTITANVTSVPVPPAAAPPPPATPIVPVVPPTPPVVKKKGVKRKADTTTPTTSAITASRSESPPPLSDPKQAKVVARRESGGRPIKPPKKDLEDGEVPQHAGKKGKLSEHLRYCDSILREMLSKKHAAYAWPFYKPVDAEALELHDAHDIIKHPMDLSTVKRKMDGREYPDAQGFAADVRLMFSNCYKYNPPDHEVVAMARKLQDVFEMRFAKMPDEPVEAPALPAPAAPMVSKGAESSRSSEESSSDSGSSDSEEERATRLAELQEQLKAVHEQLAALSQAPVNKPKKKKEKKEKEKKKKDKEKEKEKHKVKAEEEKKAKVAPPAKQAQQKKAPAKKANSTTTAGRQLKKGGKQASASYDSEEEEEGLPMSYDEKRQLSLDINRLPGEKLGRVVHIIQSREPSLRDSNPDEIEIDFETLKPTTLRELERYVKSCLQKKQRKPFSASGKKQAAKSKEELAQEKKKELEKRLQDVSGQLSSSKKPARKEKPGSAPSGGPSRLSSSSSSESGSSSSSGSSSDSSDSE
Test: Displacement of Alexa Fluor 647 labelled I-BET762 from N-terminal His6-tagged human BRD3 BD1 (1 to 435 residues)/BD2 Y348A mutant expressed in Escherichia coli after 1 hr by TR-FRET assay
Item-by-item account of IC50
quantity name: IC50 (nM)

• COCc1nc2cnc3cc(-c4c(C)noc4C)c(OC)cc3c2n1[C@H](C)c1ccccc1 = 10
• COc1cc2c(cc1-c1c(C)noc1C)ncc1[nH]c(=O)n([C@H](C)c3ccccn3)c12 = 31.6

---

Assay: Elimination half life in CD1 mouse at 10 mg/kg, ip measured up to 7 hrs by reverse-phase LC-MS/MS analysis
Type: ADME, organism-based
Details: in vivo, read-out: beta t1/2 (converted)
quantity name: half-life (min)

* COCc1nc2cnc3cc(-c4c(C)noc4C)c(OC[C@H]4CCNC4)cc3c2n1[C@H](C)c1ccccc1 | 54

Cited source for all entries: ChEMBL document CHEMBL4622984
